Source of measurements: ChEMBL document CHEMBL1201862

System: OVCAR-8
Experiment: NCI tumour cell line growth inhibition, 48 h
Active and inactive are the calls of the source. Cut-off read from the data, not from the text of the source: active = GI50 up to about 1.1 µM and inactive = higher.
Possible outcomes: active, inactive

In [3]: df
Out[3]:
                                   molecule  class_assignment
0       O=C(/C=C/c1c[nH]c2ccccc12)c1ccccc1O          inactive
1  Cc1cc(S(=O)(=O)/N=C(\NN)NNc2cccc(C(F)(F)F)n2)c(S)cc1Cl          inactive
2  COc1ccc(-c2c(C#N)c(S)n(NS(=O)(=O)c3ccc(C)cc3)c(=O)c2C#N)cc1          inactive
3                CCN(CC)C(=S)N/N=C/c1ccccn1            active
4  CCc1c(OC(C)=O)c2c(NC3OC(COC(C)=O)C(OC(C)=O)C(OC(C)=O)C3OC(C)=O)nc(SC)nc2oc1=O (stereo unspecified)          inactive
5  O=C(Nc1ccccc1)C(=O)C(C(=O)c1ccccc1)C(c1ccccc1)c1ccccc1 (stereo unspecified)          inactive

====

Test system: CAKI-1
Assay: NCI tumour cell line growth inhibition, 48 h
The source made the active and inactive calls. Cut-off read from the data, not from the text of the source: active = GI50 up to about 1.1 µM and inactive = higher.
Outcomes: active, inactive

In [3]: df
Out[3]:
                                   molecule  class_assignment
0  CC(OC(C)(C)C)[C@H](NC(=O)OC(C)(C)C)C(=O)O (some centres undefined)          inactive
1  O=c1[nH]c2c(Nc3c4ccccc4nc4ccccc34)c([N+](=O)[O-])c(Nc3c4ccccc4nc4ccccc34)c([N+](=O)[O-])c2[nH]1          inactive
2  Cn1nc(-c2ccccc2)c(C(=O)/C=C/c2ccc(F)cc2)c(N2CCCCC2)c1=O          inactive
3  CCOC(=O)c1c(C)nc2c(c1-c1cn(-c3ccccc3)nc1-c1ccccc1)C(=O)c1ccccc1-2          inactive
4      O=C(/C=C/c1ccc(Cl)cc1)c1ccccc(=O)c1O            active
5                CN(C)c1n/c(=N/Cc2cccs2)ss1          inactive
6  COc1cc(/C=C2\N=C(c3ccccc3)N(c3ccc(C(=O)c4ccccc4)cc3N3C(=O)/C(=C/c4ccc(O)c(OC)c4)N=C3c3ccccc3)C2=O)ccc1O          inactive
7                      O=c1ccccc2cccc(O)c12          inactive
8  N#Cc1c(N)nc2c(c1-c1ccc(Br)cc1)CSc1ccccc1-2          inactive

====

System: 786-0
Experiment: NCI tumour cell line growth inhibition, 48 h
Calls of active or inactive are those of the source. Cut-off read from the data, not from the text of the source: active = GI50 up to about 1.1 µM and inactive = higher.

Compound	System name	GI50
COC(=O)[C@]12CSCN1C(=O)C(C(C)=O)=NN2C(=O)[C@](OC)(c1ccccc1)C(F)(F)F	786-0	> 100 µM (inactive)
CCOc1ccc(NCC2CC/C(=C\C=C\c3ccccc3)C2=O)cc1 (stereo unspecified)	786-0	5.25 µM (inactive)
O=C(N/N=C(COc1ccccc1Cl)\N=C\c1ccncc1)c1ccncc1	786-0	> 100 µM (inactive)
Brc1ccc(-c2cc3c(cc2C2SCCS2)OCO3)cc1	786-0	26.9 µM (inactive)
Cc1nc2cccc(F)c2c(=O)n1C1CCCCNC1=O (stereo unspecified)	786-0	> 10 µM (inactive)
Cc1cccc(Nc2nn3c(=O)c4c5c(sc4nc3s2)CCCC5)c1	786-0	45.9 µM (inactive)
O=CC1C[C@@H](N2C(=O)O[C@@H](c3ccccc3)[C@H]2c2ccccc2)[C@@H]1COCc1ccccc1 (stereo partly specified)	786-0	14.3 µM (inactive)
CO[C@H]1[C@@H](O)[C@H](O[C@@H]2C[C@H]3CC[C@@H]4[C@H](CC[C@]5(C)[C@@H](C6=CC(=O)OC6)CC[C@]45O)[C@@]3(C)[C@H](OC(C)=O)C2)O[C@@H](C)[C@H]1O	786-0	1.84 µM (inactive)
C/C(=N\Nc1nc2ccccc2n1C)c1ccc2ccccc2n1	786-0	1.99 µM (inactive)
CC(=O)NNc1nc(C)c(C(=O)/C=C/c2ccc(Cl)c(Cl)c2)s1	786-0	> 100 µM (inactive)
c1cc(C2N3CCCN2CC3)ccn1 (stereo unspecified)	786-0	56.2 µM (inactive)
